- Test system: EMC-BAC-2
- Assay Explanation: relative viability (nuclei count vs DMSO), 5 days (fraction); higher = more cells survive
- Setup Conditions: first compound 0.06325 µM
Measured Metric: relative viability
Give a plain numeric answer without units written out.

### Prompt Name the recorded relative viability for CCNC(=O)c1noc(-c2cc(C(C)C)c(O)cc2O)c1-c1ccc(CN2CCOCC2)cc1 [Luminespib] + Cc1nc(Nc2ncc(C(=O)Nc3c(C)cccc3Cl)s2)cc(N2CCN(CCO)CC2)n1 [Dasatinib] (partner 0.075 µM) .
### Response 0.395

### Prompt Also check CCNC(=O)c1noc(-c2cc(C(C)C)c(O)cc2O)c1-c1ccc(CN2CCOCC2)cc1 [Luminespib] + N=C(N)NC(=N)NCCc1ccccc1 [Phenformin] (partner 250 µM)
### Response 0.254

### Prompt How about this compound: CCNC(=O)c1noc(-c2cc(C(C)C)c(O)cc2O)c1-c1ccc(CN2CCOCC2)cc1 [Luminespib] + COc1cc2c(Oc3ccc(NC(=O)C4(C(=O)Nc5ccc(F)cc5)CC4)cc3F)ccnc2cc1OCCCN1CCOCC1 [Foretinib] (partner 0.25 µM)
### Response 0.915

### Prompt Try the compound CCNC(=O)c1noc(-c2cc(C(C)C)c(O)cc2O)c1-c1ccc(CN2CCOCC2)cc1 [Luminespib] + CS(=O)(=O)N1CCN(Cc2cc3nc(-c4cccc5[nH]ncc45)nc(N4CCOCC4)c3s2)CC1 [Pictilisib] (partner 1 µM)
### Response 0.573

### Prompt Can you handle CCNC(=O)c1noc(-c2cc(C(C)C)c(O)cc2O)c1-c1ccc(CN2CCOCC2)cc1 [Luminespib] + CS(=O)(=O)CCNCc1ccc(-c2ccc3ncnc(Nc4ccc(OCc5cccc(F)c5)c(Cl)c4)c3c2)o1 [Lapatinib] (partner 2 µM) next?
### Response 0.853

### Prompt Same thing, different compound: CCNC(=O)c1noc(-c2cc(C(C)C)c(O)cc2O)c1-c1ccc(CN2CCOCC2)cc1 [Luminespib] + O=C(CCCCCCC(=O)Nc1ccccc1)NO [Vorinostat] (partner 1 µM)
### Response 0.148

====

Could you please report measured relative viability for the items listed next?
- System: LOU-NH91
- Assay Explanation: relative viability (nuclei count vs DMSO), 5 days (fraction); higher = more cells survive
- Setup Conditions: first compound 0.2 µM
Just the number, please, no unit after it.

### Prompt // query relative viability value for entry CN1CCN(CCOc2cc(OC3CCOCC3)c3c(Nc4c(Cl)ccc5c4OCO5)ncnc3c2)CC1 [Saracatinib] + C[C@]1(O)C[C@@H](c2nc(-c3ccc4ccc(-c5ccccc5)nc4c3)c3c(N)nccn32)C1 [Linsitinib] (partner 1 µM)
### Response 0.603

### Prompt Next record, please: CCNC(=O)c1noc(-c2cc(C(C)C)c(O)cc2O)c1-c1ccc(CN2CCOCC2)cc1 [Luminespib] + C[C@]1(O)C[C@@H](c2nc(-c3ccc4ccc(-c5ccccc5)nc4c3)c3c(N)nccn32)C1 [Linsitinib] (partner 1 µM)
### Response 0.348

### Prompt How about CN1CCN(CCOc2cc(OC3CCOCC3)c3c(Nc4c(Cl)ccc5c4OCO5)ncnc3c2)CC1 [Saracatinib] + Cc1nc(Nc2ncc(C(=O)Nc3c(C)cccc3Cl)s2)cc(N2CCN(CCO)CC2)n1 [Dasatinib] (partner 0.075 µM) ?
### Response 0.429

### Prompt What do we get for Cc1csc(=NC2CCCCC2)n1/N=C/c1ccc(O)c(O)c1O [MIM1] + Cc1nc(Nc2ncc(C(=O)Nc3c(C)cccc3Cl)s2)cc(N2CCN(CCO)CC2)n1 [Dasatinib] (partner 0.075 µM) ?
### Response 0.502

====

I'd appreciate it if you could supply relative viability values for the items below.
- Test system: NCI-H2405
- Assay Explanation: relative viability (nuclei count vs DMSO), 5 days (fraction); higher = more cells survive
- Setup Conditions: first compound 0.001 µM
Format: numeric value only, no unit, no commentary.

### Prompt For the compound Cc1cn(-c2cc(NC(=O)c3ccc(C)c(Nc4nccc(-c5cccnc5)n4)c3)cc(C(F)(F)F)c2)cn1 [Nilotinib] + CS(=O)(=O)N1CCN(Cc2cc3nc(-c4cccc5[nH]ncc45)nc(N4CCOCC4)c3s2)CC1 [Pictilisib] (partner 1 µM) , what relative viability is on record?
### Response 0.426

### Prompt Also need Cc1cn(-c2cc(NC(=O)c3ccc(C)c(Nc4nccc(-c5cccnc5)n4)c3)cc(C(F)(F)F)c2)cn1 [Nilotinib] + O=C(c1cc(Cc2n[nH]c(=O)c3ccccc23)ccc1F)N1CCN(C(=O)C2CC2)CC1 [Olaparib] (partner 8 µM) , thanks.
### Response 0.837

### Prompt Now try Cc1cn(-c2cc(NC(=O)c3ccc(C)c(Nc4nccc(-c5cccnc5)n4)c3)cc(C(F)(F)F)c2)cn1 [Nilotinib] + Cc1cc(Nc2cc(N3CCN(C)CC3)nc(Sc3ccc(NC(=O)C4CC4)cc3)n2)n[nH]1 [Tozasertib] (partner 0.1 µM) .
### Response 0.767

### Prompt Quick one: Cc1cn(-c2cc(NC(=O)c3ccc(C)c(Nc4nccc(-c5cccnc5)n4)c3)cc(C(F)(F)F)c2)cn1 [Nilotinib] + Cc1nc(Nc2ncc(C(=O)Nc3c(C)cccc3Cl)s2)cc(N2CCN(CCO)CC2)n1 [Dasatinib] (partner 0.075 µM)
### Response 0.219

### Prompt How about this compound: Cc1cn(-c2cc(NC(=O)c3ccc(C)c(Nc4nccc(-c5cccnc5)n4)c3)cc(C(F)(F)F)c2)cn1 [Nilotinib] + Nc1ncn([C@H]2C[C@H](O)[C@@H](CO)O2)c(=O)n1 [Decitabine] (partner 2 µM)
### Response 0.724

====

- Test system: NCI-H2405
- Assay Explanation: relative viability (nuclei count vs DMSO), 5 days (fraction); higher = more cells survive
- Setup Conditions: first compound 0.006325 µM
Measured Metric: relative viability
# output: bare number, no unit

### Prompt What does the data say about its relative viability? Entry: CCNC(=O)c1noc(-c2cc(C(C)C)c(O)cc2O)c1-c1ccc(CN2CCOCC2)cc1 [Luminespib] + C[C@]1(O)C[C@@H](c2nc(-c3ccc4ccc(-c5ccccc5)nc4c3)c3c(N)nccn32)C1 [Linsitinib] (partner 1 µM)
### Response 0.721

### Prompt Thanks! And CCNC(=O)c1noc(-c2cc(C(C)C)c(O)cc2O)c1-c1ccc(CN2CCOCC2)cc1 [Luminespib] + Cc1nc(Nc2ncc(C(=O)Nc3c(C)cccc3Cl)s2)cc(N2CCN(CCO)CC2)n1 [Dasatinib] (partner 0.075 µM) ?
### Response 0.182

====

- Tested on: NCI-H1666
- Assay Explanation: relative viability (nuclei count vs DMSO), 5 days (fraction); higher = more cells survive
- Setup Conditions: first compound 0.03162 µM
Measured Metric: relative viability
The answer should be written as a number, with no unit following it.

### Prompt Please provide the recorded relative viability for Cc1cn(-c2cc(NC(=O)c3ccc(C)c(Nc4nccc(-c5cccnc5)n4)c3)cc(C(F)(F)F)c2)cn1 [Nilotinib] + COc1cc2c(Oc3ccc(NC(=O)C4(C(=O)Nc5ccc(F)cc5)CC4)cc3F)ccnc2cc1OCCCN1CCOCC1 [Foretinib] (partner 0.25 µM) , tested on NCI-H1666.
### Response 0.911

### Prompt Now consider Cc1cn(-c2cc(NC(=O)c3ccc(C)c(Nc4nccc(-c5cccnc5)n4)c3)cc(C(F)(F)F)c2)cn1 [Nilotinib] + Cc1nc(NC(=O)N2CCC[C@H]2C(N)=O)sc1-c1ccnc(C(C)(C)C(F)(F)F)c1 [Alpelisib] (partner 2 µM) .
### Response 0.831

### Prompt Queued: Cc1cn(-c2cc(NC(=O)c3ccc(C)c(Nc4nccc(-c5cccnc5)n4)c3)cc(C(F)(F)F)c2)cn1 [Nilotinib] + COc1cccc2cc(-c3nc([C@H]4CC[C@H](C(=O)O)CC4)n4ncnc(N)c34)[nH]c12 [OSI-027] (partner 0.5 µM)
### Response 0.753

### Prompt Continue with Cc1cn(-c2cc(NC(=O)c3ccc(C)c(Nc4nccc(-c5cccnc5)n4)c3)cc(C(F)(F)F)c2)cn1 [Nilotinib] + CC(=O)c1c(C)c2cnc(Nc3ccc(N4CCNCC4)cn3)nc2n(C2CCCC2)c1=O [Palbociclib] (partner 0.5 µM)
### Response 0.583

### Prompt // query: Cc1cn(-c2cc(NC(=O)c3ccc(C)c(Nc4nccc(-c5cccnc5)n4)c3)cc(C(F)(F)F)c2)cn1 [Nilotinib] + C[C@]1(O)C[C@@H](c2nc(-c3ccc4ccc(-c5ccccc5)nc4c3)c3c(N)nccn32)C1 [Linsitinib] (partner 1 µM)
### Response 0.911

====

- Test system: BEN
- Assay Explanation: relative viability (nuclei count vs DMSO), 5 days (fraction); higher = more cells survive
- Setup Conditions: first compound 0.01 µM
Assign relative viability to each entry below.

### Prompt Value wanted: relative viability (BEN) of entry Cc1cn(-c2cc(NC(=O)c3ccc(C)c(Nc4nccc(-c5cccnc5)n4)c3)cc(C(F)(F)F)c2)cn1 [Nilotinib] + O=C(c1cc(Cc2n[nH]c(=O)c3ccccc23)ccc1F)N1CCN(C(=O)C2CC2)CC1 [Olaparib] (partner 8 µM)
### Response 1.25

### Prompt Same thing, different compound: Cc1cn(-c2cc(NC(=O)c3ccc(C)c(Nc4nccc(-c5cccnc5)n4)c3)cc(C(F)(F)F)c2)cn1 [Nilotinib] + Nc1ncn([C@H]2C[C@H](O)[C@@H](CO)O2)c(=O)n1 [Decitabine] (partner 2 µM)
### Response 0.622

### Prompt Now consider Cc1cn(-c2cc(NC(=O)c3ccc(C)c(Nc4nccc(-c5cccnc5)n4)c3)cc(C(F)(F)F)c2)cn1 [Nilotinib] + CC(=O)c1c(C)c2cnc(Nc3ccc(N4CCNCC4)cn3)nc2n(C2CCCC2)c1=O [Palbociclib] (partner 0.5 µM) .
### Response 0.465

### Prompt Try this compound too: Cc1cn(-c2cc(NC(=O)c3ccc(C)c(Nc4nccc(-c5cccnc5)n4)c3)cc(C(F)(F)F)c2)cn1 [Nilotinib] + COc1cccc2cc(-c3nc([C@H]4CC[C@H](C(=O)O)CC4)n4ncnc(N)c34)[nH]c12 [OSI-027] (partner 0.5 µM)
### Response 0.348
